measured attribute: melting point

Worked cases, answers included:
>>> endpoint_result("COc1nc(OS(=O)(=O)C(F)(F)F)cc2cccnc12")
"99 to 101 °C"
>>> endpoint_result("CCOc1ccc2c(c1)c(I)c1n2CCC1")
"128 to 129 °C"
>>> endpoint_result("C#CC(Cn1cnnn1)n1nnc2cc3c(=O)n(C4CC4)nnc3cc2c1=O (stereo not given)")
"> 195 °C"

melting point lookup needed for `O=CCCOC(c1ccccc1)(c1ccccc1)c1ccccc1` , thanks.
97 to 98 °C

melting point lookup needed for Cc1cn(C2CC(O[Si](C)(C)C(C)(C)C)C(CO)O2)c(=O)[nH]c1=O (stereo not given) , thanks.
93 to 95 °C

melting point lookup needed for `COC(=O)c1cc(C(=O)c2c(C)c(-c3cccc(OCC(=O)O)c3)c3ccccn23)ccc1N` , thanks.
160 °C

melting point lookup needed for N#CC(=NO)C1CCCOC1 (stereo not given) , thanks.
46 to 50 °C

melting point lookup needed for `CCCc1nc(C(=O)OCC)c(C(=O)OCC)[nH]1` , thanks.
81 to 83 °C

melting point lookup needed for `CCNC(=O)Nc1c(C(O)(C(F)(F)F)C(F)(F)F)ccc2c1CCC2` , thanks.
142 to 143 °C

melting point lookup needed for CC(CCOc1ccccc1NS(C)(=O)=O)N1CCC(OC(c2ccccc2)c2ccccc2)CC1 (stereo not given) , thanks.
114 to 116 °C

* * *

measured attribute: melting point

Worked cases, answers included:
>>> endpoint_result("COc1cc(C2=C(C(C)(C)C)C(C)(C)CO2)cc(OC)c1Br")
"139 to 140 °C"
>>> endpoint_result("COc1ccc(-c2cc(C)c3occc3c2)cc1")
"82 to 83 °C"
>>> endpoint_result("CN(C)CCC1CSc2c(C(=O)O)c(=O)c3cc(F)c(N4CCN(C)CC4)cc3n21 (configuration not stated)")
"221 to 223 °C"
>>> endpoint_result("O=C(NCCOc1ccc(CC(Oc2ccc(-c3ccccn3)cc2)C(=O)O)cc1)c1ccc(-c2ccccn2)cc1 (configuration not stated)")
"98 to 101 °C"
>>> endpoint_result("Cc1ccc(Cl)cc1N1CN(C(C)(C)C)CN(C)C1=S")
"130 to 132 °C"

melting point lookup needed for CCOC(=O)C(C)Oc1ccc(Sc2nnc3cc(Cl)ccc3n2)cc1 (configuration not stated) , thanks.
86 to 88 °C

melting point lookup needed for O=C(O)CC1(O)CCC(N2CCN(CCCNc3ccncc3)CC2)CC1 (configuration not stated) , thanks.
242 °C

melting point lookup needed for `COc1ccc(-c2cccn2-c2ccc(S(N)(=O)=O)cc2)cc1` , thanks.
183 to 184 °C

melting point lookup needed for `CC(C)CCc1c(-c2ccc(S(N)(=O)=O)c(F)c2)cnn(CC(F)(F)F)c1=O` , thanks.
153 to 156 °C

melting point lookup needed for `Cc1cc(-c2cccc(Cl)c2)nnc1Cl` , thanks.
138 to 140 °C

* * *

Readings of melting point for the listed compounds

>>> endpoint_result("Cc1cc(N2CCN(c3c(C)c(C)c4c(c3C)CC(C)(C)O4)CC2)ccc1Cl")
"168 to 171 °C"
>>> endpoint_result("CCN(CC)C(=S)n1cnc(S(=O)(=O)CC2CCCC2)n1")
"78 °C"
>>> endpoint_result("CCCOc1ccnc2c1c(C(C)=O)cn2S(=O)(=O)c1ccccc1")
"119 to 121 °C"
>>> endpoint_result("CS(=O)(=O)c1ccccc1-c1ccc(C(=O)O)cc1")
"273 to 275 °C"

melting point lookup needed for `O=C(O)c1cccc(CN2C(=O)N(c3ccccc3Br)Cc3cnc(Nc4ccccc4)nc32)c1` , thanks.
180 to 183 °C
